Molecular target: mouse ACVR2A (mouse, UniProt P27038 20-135, limits assumed); also: test concentration or dose not given here
Sequence (P27038 20-135 limits assumed): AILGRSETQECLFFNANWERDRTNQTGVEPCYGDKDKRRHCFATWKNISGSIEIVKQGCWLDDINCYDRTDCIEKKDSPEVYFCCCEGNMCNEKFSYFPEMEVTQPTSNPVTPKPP
Experiment: ELISA
Each item that follows carries a reported optical density.
Measured Endpoint: optical density

1. 369_A05 (antibody, V domains shown, VH/VL only) VH: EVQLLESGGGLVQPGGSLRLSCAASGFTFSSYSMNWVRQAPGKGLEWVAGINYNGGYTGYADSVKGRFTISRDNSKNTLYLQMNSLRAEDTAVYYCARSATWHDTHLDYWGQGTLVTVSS VL: DIQMTQSPSSLSASVGDRVTITCRASQSILTYVNWYQQKPGKAPKLVIYAATSRASGVPSRFSGSGSGTDFTLTISSLQPEDFATYYCQQSYESPLTFGGGTKVEIK	3.25 OD
2. 374_F04 (antibody, V domains shown, VH/VL only) VH: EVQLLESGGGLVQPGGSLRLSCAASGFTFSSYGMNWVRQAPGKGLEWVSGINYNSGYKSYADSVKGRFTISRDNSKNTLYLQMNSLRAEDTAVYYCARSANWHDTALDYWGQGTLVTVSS VL: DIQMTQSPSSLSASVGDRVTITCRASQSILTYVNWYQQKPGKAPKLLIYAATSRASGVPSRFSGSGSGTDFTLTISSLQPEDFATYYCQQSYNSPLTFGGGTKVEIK	3.65 OD
3. 376_A12 (antibody, V domains shown, VH/VL only) VH: EVQLLESGGGLVQPGGSLRLSCAASGFTFSSYSMNWVRQAPGKGLEWVANINYNSGYKGYADSVKGRFTISRDNSKNTLYLQMNSLRAEDTAVYYCARSANWHDTALDYWGQGTLVTVSS VL: DIQMTQSPSSLSASVGDRVTITCRASQSILSYVNWYQQKPGKAPKLVIYAATSRASGVPSRFSGSGSGTDFTLTISSLQPEDFATYYCQQSYDTPLTFGGGTKVEIK	3.34 OD
